Hey, just so you know, these numbers are from BindingDB's records for doi:10.1021/jm990600c.

- TARGET_UNDER_TEST: Gag-Pol polyprotein [489-587] (Human immunodeficiency virus 1, UniProt P04585)
- Construct: 489-587
- MEASUREMENT_PROTOCOL: Tested in vitro against strand -transfer (ST) activity in the presence of Mg2+ as the cationic cofactor
pIC50: −log10 of the molar value.
compounds and their reported pIC50
READOUT_NAME: pIC50

{"COMPOUND": "CC1(C)CC2(CC(C)(C)c3cc(S(=O)(=O)O)c(O)cc32)c2cc(O)c(S(=O)(=O)O)cc21", "TARGET_UNDER_TEST": "Gag-Pol polyprotein [489-587] (Human immunodeficiency virus 1, UniProt P04585)", "ENDPOINT_VALUE": 4.16}
{"COMPOUND": "CC1(C)CC2(CC(C)(C)c3cc(C=O)c(O)cc32)c2cc(O)c(C=O)cc21", "TARGET_UNDER_TEST": "Gag-Pol polyprotein [489-587] (Human immunodeficiency virus 1, UniProt P04585)", "ENDPOINT_VALUE": 4.80}
{"COMPOUND": "CC1(C)CC2(CC(C)(C)c3cc([N+](=O)[O-])c(O)c([N+](=O)[O-])c32)c2cc(O)c([N+](=O)[O-])cc21 (configuration not stated)", "TARGET_UNDER_TEST": "Gag-Pol polyprotein [489-587] (Human immunodeficiency virus 1, UniProt P04585)", "ENDPOINT_VALUE": 4.33}
{"COMPOUND": "CC1(C)CC2(CC(C)(C)c3ccc(O)c([N+](=O)[O-])c32)c2cc(O)c([N+](=O)[O-])cc21 (configuration not stated)", "TARGET_UNDER_TEST": "Gag-Pol polyprotein [489-587] (Human immunodeficiency virus 1, UniProt P04585)", "ENDPOINT_VALUE": 4.00}
{"COMPOUND": "CC1(C)CC2(CC(C)(C)c3c(Br)c(O)c(O)c(Br)c32)c2c(Br)c(O)c(O)c(Br)c21", "TARGET_UNDER_TEST": "Gag-Pol polyprotein [489-587] (Human immunodeficiency virus 1, UniProt P04585)", "ENDPOINT_VALUE": 4.82}
{"COMPOUND": "CC1(C)CC2(CC(C)(C)c3c(Br)c(OS(=O)(=O)O)c(OS(=O)(=O)O)c(Br)c32)c2c(Br)c(OS(=O)(=O)O)c(OS(=O)(=O)O)c(Br)c21", "TARGET_UNDER_TEST": "Gag-Pol polyprotein [489-587] (Human immunodeficiency virus 1, UniProt P04585)", "ENDPOINT_VALUE": 5.40}
{"COMPOUND": "CC1(C)CC2(CC(C)(C)c3cc(N)c(O)cc32)c2cc(O)c(N)cc21", "TARGET_UNDER_TEST": "Gag-Pol polyprotein [489-587] (Human immunodeficiency virus 1, UniProt P04585)", "ENDPOINT_VALUE": 4.48}

====

- TARGET_UNDER_TEST: Gag-Pol polyprotein [489-587] (Human immunodeficiency virus 1, UniProt P04585)
- Construct: 489-587
- MEASUREMENT_PROTOCOL: Inhibition of strand -transfer (ST) activity in the presence of Mn2+
pIC50: −log10 of the molar value.
Short version: pIC50 at least 5 is TRUE, less is FALSE.

{"COMPOUND": "CC1(C)CC2(CC(C)(C)c3ccc(O)c([N+](=O)[O-])c32)c2cc(O)c([N+](=O)[O-])cc21 (stereo not drawn)", "CATEGORY": "FALSE"}
{"COMPOUND": "CC1(C)CC2(CC(C)(C)c3cc(I)c(O)cc32)c2cc(O)c(I)cc21", "CATEGORY": "TRUE"}
{"COMPOUND": "CC1(C)CC2(CC(C)(C)c3cc(OS(=O)(=O)O)c(OS(=O)(=O)O)cc32)c2cc(OS(=O)(=O)O)c(OS(=O)(=O)O)cc21", "CATEGORY": "TRUE"}
{"COMPOUND": "CC1(C)CC2(CC(C)(C)c3cc([N+](=O)[O-])c(O)c([N+](=O)[O-])c32)c2cc(O)c([N+](=O)[O-])cc21 (stereo not drawn)", "CATEGORY": "FALSE"}
{"COMPOUND": "CC1(C)CC2(CC(C)(C)c3c(Br)c(OS(=O)(=O)O)c(OS(=O)(=O)O)c(Br)c32)c2c(Br)c(OS(=O)(=O)O)c(OS(=O)(=O)O)c(Br)c21", "CATEGORY": "TRUE"}
{"COMPOUND": "CC1(C)CC2(CC(C)(C)c3cc(O)c(O)cc32)c2cc(O)c(O)cc21", "CATEGORY": "TRUE"}
{"COMPOUND": "CC1(C)CC2(CC(C)(C)c3ccc(O)c(NC(N)=O)c32)c2cc(O)c(NC(N)=O)cc21 (stereo not drawn)", "CATEGORY": "FALSE"}

====

molecules and their reported pIC50
- TARGET_UNDER_TEST: Gag-Pol polyprotein [489-587] (Human immunodeficiency virus 1)
- Construct: 489-587
- MEASUREMENT_PROTOCOL: Inhibition of 3'-processing (TC) in the presence of Mn2+ in vitro
pIC50: −log10 of the molar value.

{"MOLECULE": "CC1(C)CC2(CC(C)(C)c3cc(OS(=O)(=O)O)c(OS(=O)(=O)O)cc32)c2cc(OS(=O)(=O)O)c(OS(=O)(=O)O)cc21", "TARGET_UNDER_TEST": "Gag-Pol polyprotein [489-587] (Human immunodeficiency virus 1)", "pIC50": 5.55}
{"MOLECULE": "CC1(C)CC2(CC(C)(C)c3cc(O)c(O)cc32)c2cc(O)c(O)cc21 [HIV-1 Integrase Inhibitor]", "TARGET_UNDER_TEST": "Gag-Pol polyprotein [489-587] (Human immunodeficiency virus 1)", "pIC50": 4.77}
{"MOLECULE": "CC1(C)CC2(CC(C)(C)c3c(Br)c(O)c(O)c(Br)c32)c2c(Br)c(O)c(O)c(Br)c21", "TARGET_UNDER_TEST": "Gag-Pol polyprotein [489-587] (Human immunodeficiency virus 1)", "pIC50": 5.50}
{"MOLECULE": "CC1(C)CC2(CC(C)(C)c3cc(Br)c(O)cc32)c2cc(O)c(Br)cc21", "TARGET_UNDER_TEST": "Gag-Pol polyprotein [489-587] (Human immunodeficiency virus 1)", "pIC50": 4.96}

====

- TARGET_UNDER_TEST: Gag-Pol polyprotein [489-587] (Human immunodeficiency virus 1, UniProt P04585)
- Construct: 489-587
- MEASUREMENT_PROTOCOL: Inhibition of 3'-processing (TC) in the presence of Mn2+ in vitro
pIC50: −log10 of the molar value.
Short version: pIC50 at least 4 is Satisfied, less is Not satisfied.

{"MOLECULE": "CC1(C)CC2(CC(C)(C)c3ccc(O)cc32)c2cc(O)ccc21", "TARGET_UNDER_TEST": "Gag-Pol polyprotein [489-587] (Human immunodeficiency virus 1, UniProt P04585)", "CATEGORY": "Not satisfied"}
{"MOLECULE": "CC1(C)CC2(CC(C)(C)c3ccc(O)c(NC(N)=O)c32)c2cc(O)c(NC(N)=O)cc21 (configuration not stated)", "TARGET_UNDER_TEST": "Gag-Pol polyprotein [489-587] (Human immunodeficiency virus 1, UniProt P04585)", "CATEGORY": "Not satisfied"}
{"MOLECULE": "CC1(C)CC2(CC(C)(C)c3cc(I)c(O)cc32)c2cc(O)c(I)cc21", "TARGET_UNDER_TEST": "Gag-Pol polyprotein [489-587] (Human immunodeficiency virus 1, UniProt P04585)", "CATEGORY": "Satisfied"}
{"MOLECULE": "CC1(C)CC2(CC(C)(C)c3ccc(O)c([N+](=O)[O-])c32)c2cc(O)c([N+](=O)[O-])cc21 (configuration not stated)", "TARGET_UNDER_TEST": "Gag-Pol polyprotein [489-587] (Human immunodeficiency virus 1, UniProt P04585)", "CATEGORY": "Satisfied"}
{"MOLECULE": "CC1(C)CC2(CC(C)(C)c3cc(C=O)c(O)cc32)c2cc(O)c(C=O)cc21", "TARGET_UNDER_TEST": "Gag-Pol polyprotein [489-587] (Human immunodeficiency virus 1, UniProt P04585)", "CATEGORY": "Satisfied"}
{"MOLECULE": "CC1(C)CC2(CC(C)(C)c3c(Br)c(OS(=O)(=O)O)c(OS(=O)(=O)O)c(Br)c32)c2c(Br)c(OS(=O)(=O)O)c(OS(=O)(=O)O)c(Br)c21", "TARGET_UNDER_TEST": "Gag-Pol polyprotein [489-587] (Human immunodeficiency virus 1, UniProt P04585)", "CATEGORY": "Satisfied"}
{"MOLECULE": "CC1(C)CC2(CC(C)(C)c3cc([N+](=O)[O-])c(O)c([N+](=O)[O-])c32)c2cc(O)c([N+](=O)[O-])cc21 (configuration not stated)", "TARGET_UNDER_TEST": "Gag-Pol polyprotein [489-587] (Human immunodeficiency virus 1, UniProt P04585)", "CATEGORY": "Satisfied"}
